- Experiment: Cytotoxicity against human HuH7 cells
- Format: cell-based, Huh-7
Reported metric: CC50

Below is a list of compounds. For each, state its recorded CC50.
1. COP1(=O)OC[C@H]2O[C@@H](n3cnc4c(N5CCC5)nc(N)nc43)[C@](C)(F)[C@@H]2O1 (stereo partly drawn)
2. CCOc1nc(N)nc2c1ncn2[C@@H]1O[C@@H]2CO[P@](=O)(OC(C)C)O[C@H]2[C@@]1(C)F (stereo in doubt; 24a)
3. CCCOc1nc(N)nc2c1ncn2[C@@H]1O[C@@H]2CO[P@](=O)(OCCC)O[C@H]2[C@@]1(C)F (stereo in doubt; 26b)

["> 30 µM", "> 100 µM", "> 11 µM"]

---

- Experiment: Half life in human liver S9 fraction
- Type: ADME, subcellular
- Experimental context: read-out: Stability (converted)
Reported metric: half-life

Observe how each entry below is paired with its result.
| Molecule | Reported metric | Test value |
| --- | --- | --- |
| CCOc1nc(N)nc2c1ncn2[C@@H]1O[C@@H]2CO[P@](=O)(OC(C)C)O[C@H]2[C@@]1(C)F (stereo in doubt; 24a) | half-life | > 24 h |
| CCOc1nc(N)nc2c1ncn2[C@@H]1O[C@@H]2COP(=O)(OC)O[C@H]2[C@@]1(C)F (some centres undefined) | half-life | > 24 h |
| CCCNc1nc(N)nc2c1ncn2[C@@H]1O[C@@H]2COP(=O)(OC)O[C@H]2[C@@]1(C)F (some centres undefined) | half-life | > 24 h |

State its half-life: COP1(=O)OC[C@H]2O[C@@H](n3cnc4c(N5CCC5)nc(N)nc43)[C@](C)(F)[C@@H]2O1 (some centres undefined)
2.53 h
